Biological target: CYP3A4 (Homo sapiens, UniProt P08684)
Sequence (P08684 whole entry): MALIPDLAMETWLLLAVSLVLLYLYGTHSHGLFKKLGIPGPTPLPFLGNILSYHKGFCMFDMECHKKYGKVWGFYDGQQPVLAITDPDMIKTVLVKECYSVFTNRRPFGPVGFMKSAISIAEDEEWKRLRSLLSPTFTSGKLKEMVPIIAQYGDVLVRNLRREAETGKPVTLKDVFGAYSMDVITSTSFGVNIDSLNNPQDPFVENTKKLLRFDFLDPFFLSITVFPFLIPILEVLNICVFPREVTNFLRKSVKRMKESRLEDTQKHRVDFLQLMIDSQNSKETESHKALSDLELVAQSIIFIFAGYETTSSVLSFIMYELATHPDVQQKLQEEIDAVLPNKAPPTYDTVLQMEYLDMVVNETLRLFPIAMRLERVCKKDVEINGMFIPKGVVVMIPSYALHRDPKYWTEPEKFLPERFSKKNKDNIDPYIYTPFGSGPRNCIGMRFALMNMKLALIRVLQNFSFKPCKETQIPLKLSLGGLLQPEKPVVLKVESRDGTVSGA
Assay: Induction of CYP3A4 in human hepatocyte
Format: ADME, cell-based
Settings: hepatocytes
pEC50: −log10 of the molar value.
quantity-measured: pEC50

Exercise: Which pEC50 is listed for C=C(C)[C@@H]1CC[C@]2(NCCN3CCS(=O)(=O)CC3)CC[C@]3(C)[C@H](CC[C@@H]4[C@@]5(C)CC=C(C6=CC[C@@](CF)(C(=O)O)CC6)C(C)(C)[C@@H]5CC[C@]43C)[C@@H]12 [FIPRAVIRIMAT] ?
Key: < 5.30

---

The entries below are paired with their reported AUC.
Experiment: AUC in rat at 5 mg/kg, po
Format: ADME, organism-based
Design: dose 5 mg/kg, route po
Details: in vivo, read-out: AUC
The reply should contain only the number, in µM·h.

>  <compound>
C=C(C)[C@@H]1CC[C@]2(NCCN3CCC(S(C)(=O)=O)CC3)CC[C@]3(C)[C@H](CC[C@@H]4[C@@]5(C)CC=C(C6=CCC(CF)(C(=O)O)CC6)C(C)(C)[C@@H]5CC[C@]43C)[C@@H]12 (some centres not stated)

>  <recorded-measurement>
14.7

$$$$

Exercise: Which AUC is listed for C=C(C)[C@@H]1CC[C@]2(NCCN3CCS(=O)(=O)CC3)CC[C@]3(C)[C@H](CC[C@@H]4[C@@]5(C)CC=C(C6=CCC(OC)(C(=O)O)CC6)C(C)(C)[C@@H]5CC[C@]43C)[C@@H]12 (some centres not stated) ?
Key: 8.24

---

Assay: AUC in rat at 5 mg/kg, po
Format: ADME, organism-based
Design: dose 5 mg/kg, route po
Conditions: in vivo, read-out: AUC
One threshold, 4 µM·h, splits the recorded AUC values: lower ones are 1.0, equal or higher ones are 0.0.

Exercise: Does C=C(C)[C@@H]1CC[C@]2(NCCN3CCC(S(C)(=O)=O)CC3)CC[C@]3(C)[C@H](CC[C@@H]4[C@@]5(C)CC=C(C6=CCC(CCO)(C(=O)O)CC6)C(C)(C)[C@@H]5CC[C@]43C)[C@@H]12 (stereo not given in full) have AUC strictly under 4 µM·h?
Key: 1.0

Exercise: Now consider C=C(C)[C@@H]1CC[C@]2(NCCN3CCC(S(C)(=O)=O)CC3)CC[C@]3(C)[C@H](CC[C@@H]4[C@@]5(C)CC=C(C6=CCC(CCCO)(C(=O)O)CC6)C(C)(C)[C@@H]5CC[C@]43C)[C@@H]12 (stereo not given in full) .
Key: 0.0

Exercise: Now consider C=C(C)[C@@H]1CC[C@]2(NCCN3CCS(=O)(=O)CC3)CC[C@]3(C)[C@H](CC[C@@H]4[C@@]5(C)CC=C(C6=CCC(C)(C(=O)O)CC6)C(C)(C)[C@@H]5CC[C@]43C)[C@@H]12 (stereo not given in full) .
Key: 0.0

Exercise: Now consider C=C(C)[C@@H]1CC[C@]2(NCCN3CCS(=O)(=O)CC3)CC[C@]3(C)[C@H](CC[C@@H]4[C@@]5(C)CC=C(C6=CCC(CF)(C(=O)O)CC6)C(C)(C)[C@@H]5CC[C@]43C)[C@@H]12 (single isomer, unassigned) .
Key: 0.0

Exercise: Now consider C=C(C)[C@@H]1CC[C@]2(NCCN3CCC(S(C)(=O)=O)CC3)CC[C@]3(C)[C@H](CC[C@@H]4[C@@]5(C)CC=C(C6=CC[C@@](CF)(C(=O)O)CC6)C(C)(C)[C@@H]5CC[C@]43C)[C@@H]12 .
Key: 0.0
